Target: TJP2_1, Q9UDY2
Sequence (Q9UDY2 24-128): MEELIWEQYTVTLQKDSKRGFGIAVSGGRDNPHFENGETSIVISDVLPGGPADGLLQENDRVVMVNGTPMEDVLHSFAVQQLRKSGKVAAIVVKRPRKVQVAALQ
Assay: holdup assay
Set-up: key: below the threshold = too weak to quantify, mostly under pKd 3.1 to 4
Details: plain residues with an end cap or a label only (N-terminal biotin on a linker: ado-ado)
Value Type: pKd

Binder	pKd
QQGLLPHSSC [TYRO3, Q06418]	below the threshold
HYPASPDSWV [CTNND2, Q9UQB3]	4.37
NKSEPFLTWL [WWTR1, Q9GZV5]	5.59
NSTHNLKDYV [CLDN20, P56880]	3.8
QKASRNESTF [POLR1D, P0DPB6]	below the threshold

Required: pKd, one value per binder below.
1. IKLETKKTKL [SLC15A2, Q16348]
2. YAEKRMLTEV [KCNA6, P17658]

# output
[3.85, "below the threshold"]
